# TARGET_ENTITY: T1, human complement protein C5 (human, UniProt P01031 19-1676)
# T1 construct: Native C5 is a two-chain protein made from one precursor; also called hC5; human C5
# ASSAY_SUMMARY: SPR (Biacore)
Please respond with reported koff for every item in the list.
Answers are plain numbers, in s⁻¹.

Previously resolved entries follow.
>  <BINDER>
LCP0143 (VHH, llama anti-C5 VHH, tested as VHH-His fusion; not shown: His-tag) VHH: EVQLVESGGGLVQAGGSLRLSCAAPEMGATINVMAWYRQAPGKQRELVARLPLDNNIDYGDFAKGRFTISRDITRNTVYLQMNNLKPDDTAVYYCNVLLSRQINGAYVHWGQGTQVTVSS

>  <koff [s⁻¹]>
5.66e-05

$$$$
>  <BINDER>
LCP0146 (VHH, llama anti-C5 VHH, tested as VHH-His fusion; not shown: His-tag) VHH: EVQLVESGGGLVQAGGSLRLSCAASGRAFSDYAMAWFRQAPGKEREFVAGIGWSGGDTLYADSVRGRFTNSKDNAKNRMSLQMNSLKPEDTAVYYCAARQGQYIYSSMRSDSYDYWGQGTQVTVSS

>  <koff [s⁻¹]>
9.75e-05

$$$$
>  <BINDER>
LCP0136 (VHH, llama anti-C5 VHH, tested as VHH-His fusion; not shown: His-tag) VHH: EVQLVESGGGLVQPGESLRLSCAISGFAFTDVGMSWVRQAPGKGLEWVSSISSGSSITTYSDSVKGRFTISRDNARNTLFLQMNSLKPEDTAVYYCGRYYCTGLGCHPRRDSALWGQGTQVTVSS

>  <koff [s⁻¹]>
0.000882

$$$$

Pending binder:
koff for LCP0296 (VHH, llama anti-C5 VHH, tested as VHH-His fusion; not shown: His-tag) VHH: EVQLVESGGGVVQAGDSLTLTCTAPVGTISDYGMGWFRQAPGKEREFVASISWGGMWTDYADSVKGRFTISRDNDKNAVYLRMNSLNAEDTAVYYCGRGRMYRGIGNSLAQPKSYGYWGQGTQVTVSS is 3.9e-05
